- assay details: Toxicity in rat striatal neuronal N548 mutant cells
- test settings: read-out: TC50 (the source's name)
readout name: CC50
Don't forget the unit after the value.

Query: Supply CC50 value. Item: O=[N+]([O-])c1ccc(O)c([N+](=O)[O-])c1
Result: 16 mM

Query: Supply CC50 value. Item: [F-].[Na+] [SODIUM FLUORIDE]
Result: 10 mM

Query: Supply CC50 value. Item: C=C(C)[C@H]1Cc2c(ccc3c2O[C@@H]2COc4cc(OC)c(OC)cc4[C@@H]2C3=O)O1
Result: 0.04 mM
